System: Bacillus subtilis
Assay: Antibacterial activity against Bacillus subtilis
Assay type: functional
Threshold 40 µg/mL: MIC strictly smaller gives Y, otherwise N.

> print(dat)
                                   molecule      system.tested  group.label
1  CCOC(=O)C1=C(C)NC(=S)NC1c1ccc([N+](=O)[O-])cc1 (stereo not given)  Bacillus subtilis            N
2  CCOC(=O)C1=C(C)NC(=S)NC1c1ccc(N)cc1 (stereo not given)  Bacillus subtilis            N
3  O=C(O)c1cn(C2CC2)c2cc(N3CCNCC3)c(F)cc2c1=O  Bacillus subtilis            Y
4  CCOC(=O)C1=C(C)NC(=S)NC1c1ccc(NC(=O)Nc2c(Cl)cccc2C(F)(F)F)cc1 (stereo not given)  Bacillus subtilis            N
5  CCOC(=O)C1=C(C)NC(=S)NC1c1ccc(NC(=O)Nc2ccc(OC)cc2)cc1 (stereo not given)  Bacillus subtilis            Y
6  CCOC(=O)C1=C(C)NC(=S)NC1c1ccc(NC(=O)Nc2ccc(C(F)(F)F)cc2)cc1 (stereo not given)  Bacillus subtilis            Y
7  CCOC(=O)C1=C(C)NC(=S)NC1c1ccc(NC(=O)Nc2c(C)cccc2F)cc1 (stereo not given)  Bacillus subtilis            N
8  CCOC(=O)C1=C(C)NC(=S)NC1c1ccc(NC(=O)Nc2ccccc2F)cc1 (stereo not given)  Bacillus subtilis            Y
9  CCOC(=O)C1=C(C)NC(=S)NC1c1ccc(NC(=O)Nc2c(C)cccc2Cl)cc1 (stereo not given)  Bacillus subtilis            N

Here is another molecule to look at.
**Q:** For CCOC(=O)C1=C(C)NC(=S)NC1c1ccc(NC(=O)Nc2ccccc2C(F)(F)F)cc1 (stereo not given) , is the recorded MIC below the cut-off of 40 µg/mL?
**A:** Y

###

Test system: Bacillus subtilis
Experiment: Antibacterial activity against Bacillus subtilis
Type: functional
Threshold 60 mg/L: MIC strictly smaller gives yes, otherwise no.

> print(dat)
                                   compound      system.tested  group.label
1  CCOC(=O)C1=C(C)NC(=S)NC1c1ccc(NC(=O)Nc2cc(C(F)(F)F)ccc2Cl)cc1 (stereo unspecified)  Bacillus subtilis           no
2  CCOC(=O)C1=C(C)NC(=S)NC1c1ccc(NC(=O)Nc2c(F)cccc2C(F)(F)F)cc1 (stereo unspecified)  Bacillus subtilis          yes
3  CCOC(=O)C1=C(C)NC(=S)NC1c1ccc(NC(=O)Nc2ccccc2Oc2ccccc2)cc1 (stereo unspecified)  Bacillus subtilis          yes

**Q:** For CCOC(=O)C1=C(C)NC(=S)NC1c1ccc(NC(=O)Nc2ccc(C(F)(F)F)cc2Cl)cc1 (stereo unspecified) , is the recorded MIC below the cut-off of 60 mg/L?
**A:** yes

**Q:** For CCOC(=O)C1=C(C)NC(=S)NC1c1ccc(NC(=O)Nc2ccc(F)c(C)c2)cc1 (stereo unspecified) , is the recorded MIC below the cut-off of 60 mg/L?
**A:** no

**Q:** For CCOC(=O)C1=C(C)NC(=S)NC1c1ccc(NC(=O)Nc2ccccc2OC(F)(F)F)cc1 (stereo unspecified) , is the recorded MIC below the cut-off of 60 mg/L?
**A:** yes

**Q:** For CCOC(=O)C1=C(C)NC(=S)NC1c1ccc(NC(=O)Nc2ccc(C)c(C)c2)cc1 (stereo unspecified) , is the recorded MIC below the cut-off of 60 mg/L?
**A:** no

**Q:** For CCOC(=O)C1=C(C)NC(=S)NC1c1ccc(NC(=O)Nc2ccc(C(C)C)cc2)cc1 (stereo unspecified) , is the recorded MIC below the cut-off of 60 mg/L?
**A:** no
